Values from ChEMBL document CHEMBL1137687

tested on: Human immunodeficiency virus 1; assay: Antiviral activity against wild type HIV1 3B assessed as protection as protection against virus-induced cytopathogenicity after 4 days by MTT assay; type: functional; details: Human immunodeficiency virus 1, 3B, 96 h
Experimental readout: EC50

{"Smiles text": "O=c1c2ccccc2sn1/N=C/c1ccccc1O", "Assayed target": "Human immunodeficiency virus 1", "Assay result": "> 18 µM"}
{"Smiles text": "O=c1c2ccccc2sn1/N=C/c1ccc(F)cc1", "Assayed target": "Human immunodeficiency virus 1", "Assay result": "4.4 µM"}
{"Smiles text": "O=c1c2ccccc2sn1/N=C/c1cccc(Cl)c1", "Assayed target": "Human immunodeficiency virus 1", "Assay result": "100 µM"}
{"Smiles text": "O=c1c2ccccc2sn1/N=C/c1ccc(Cl)cc1", "Assayed target": "Human immunodeficiency virus 1", "Assay result": "> 26 µM"}
{"Smiles text": "Cc1ccc2sn(/N=C/c3ccccc3[N+](=O)[O-])c(=O)c2c1", "Assayed target": "Human immunodeficiency virus 1", "Assay result": "> 100 µM"}

Param item = O=c1c2ccccc2sn1/N=C/c1ccccc1F ; retrieve measured EC50.
≥ 11 µM

# get_value(readout='EC50', item= CCCCCCCCCCC/C=N/n1sc2ccccc2c1=O )
> 17 µM

What value of EC50 has been reported for the following molecule? O=c1c2ccccc2sn1/N=C/c1ccc(O)c(O)c1
> 44 µM

# query: EC50 of entry O=c1c2ccccc2sn1/N=C/c1ccc(O)cc1
> 18 µM

Given the molecule O=c1c2ccccc2sn1/N=C/c1ccc(O)cc1O , what is its reported EC50?
> 21 µM

Requested read-out: EC50. Entry: O=c1c2ccccc2sn1/N=C/c1cccc([N+](=O)[O-])c1
36 µM

Entry under review: Cc1ccc2sn(/N=C/c3ccc(O)cc3)c(=O)c2c1 . Reported EC50?
> 23 µM

# get_value(readout='EC50', item= Cc1ccc2sn(/N=C/c3ccco3)c(=O)c2c1 )
> 18 µM

What does the record list as EC50 for Cc1ccc2sn(/N=C/c3cccc([N+](=O)[O-])c3)c(=O)c2c1 ?
48 µM

Entry Cc1ccc2sn(/N=C/c3ccccc3F)c(=O)c2c1 : reported EC50 = ?
> 18 µM
